# assayed_system: UniProt P15101
# Sequence (P15101 whole entry): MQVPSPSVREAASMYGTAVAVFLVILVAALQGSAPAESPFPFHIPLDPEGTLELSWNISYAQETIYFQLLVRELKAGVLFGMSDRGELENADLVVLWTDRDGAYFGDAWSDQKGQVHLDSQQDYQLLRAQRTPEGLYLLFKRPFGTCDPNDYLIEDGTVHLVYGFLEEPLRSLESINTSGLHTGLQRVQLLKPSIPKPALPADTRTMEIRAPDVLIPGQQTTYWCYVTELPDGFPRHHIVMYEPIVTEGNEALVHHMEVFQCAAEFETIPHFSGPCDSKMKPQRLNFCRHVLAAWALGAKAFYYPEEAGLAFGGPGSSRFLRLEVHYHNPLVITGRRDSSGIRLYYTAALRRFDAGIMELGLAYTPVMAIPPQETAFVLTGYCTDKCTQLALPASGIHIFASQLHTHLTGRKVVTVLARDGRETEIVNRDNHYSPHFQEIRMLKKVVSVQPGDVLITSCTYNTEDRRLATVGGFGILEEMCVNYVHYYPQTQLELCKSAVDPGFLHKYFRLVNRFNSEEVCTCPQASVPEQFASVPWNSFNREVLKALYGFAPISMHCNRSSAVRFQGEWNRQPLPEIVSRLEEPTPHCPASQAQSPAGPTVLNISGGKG
# assay_method_text: Inhibition of dopamine β-hydroxylase (DH)
# Assay type: biochemical
# experimental_setup: 200 mcg/cc
measured_endpoint: inhibition at 200 µg/mL (%)

{"columns": ["compound", "test_value"],
 "data": [
  ["CC1=CC(=O)C(C(=O)CCc2ccc(O)c(O)c2)C(=O)O1 (centres unmarked)", 20.6],
  ["COc1ccc(CCC(=O)C2C(=O)C=C(C)OC2=O)cc1 (centres unmarked)", 35],
  ["COC(=O)c1ccc(CCC(=O)C2C(=O)C=C(C)OC2=O)cc1 (centres unmarked)", 54.9],
  ["CC1=CC(=O)C(C(=O)CCc2cc(Cl)cc(Cl)c2O)C(=O)O1 (centres unmarked)", 82.3],
  ["COc1cc(CCC(=O)C2C(=O)C=C(C)OC2=O)cc(OC)c1O (centres unmarked)", 43.6],
  ["CC1=CC(=O)C(C(=O)CCc2ccc(Cl)c(Cl)c2)C(=O)O1 (centres unmarked)", 90.4],
  ["CC1=CC(=O)C(C(=O)CCc2ccc(C(C)C)cc2)C(=O)O1 (centres unmarked)", 94.5],
  ["COc1cc(CCC(=O)C2C(=O)C=C(C)OC2=O)ccc1O (centres unmarked)", 29.6],
  ["CC1=CC(=O)C(C(=O)CCc2c(C)cc(C)cc2C)C(=O)O1 (centres unmarked)", 28.9],
  ["CC1=CC(=O)C(C(=O)CCc2ccc(C(F)(F)F)cc2)C(=O)O1 (centres unmarked)", 88],
  ["COc1ccc(CCC(=O)C2C(=O)C=C(C)OC2=O)cc1OC (centres unmarked) [reference compound]", 32.5],
  ["CC1=CC(=O)C(C(=O)CCc2cccc3ccccc23)C(=O)O1 (centres unmarked)", 56.2],
  ["CC1=CC(=O)C(C(=O)CCc2c(O)ccc3ccccc23)C(=O)O1 (centres unmarked)", 44.7],
  ["CC1=CC(=O)C(C(=O)CCc2cccc(O)c2)C(=O)O1 (centres unmarked)", 81.7],
  ["CC1=CC(=O)C(C(=O)CCc2ccc3c(c2)OCO3)C(=O)O1 (centres unmarked)", 86.7],
  ["CC1=CC(=O)C(C(=O)CCCCc2ccccc2)C(=O)O1 (centres unmarked)", 85.8],
  ["CC1=CC(=O)C(C(=O)CCc2ccc(C#N)cc2)C(=O)O1 (centres unmarked)", 77.5],
  ["CC1=CC(=O)C(C(=O)CCc2ccc(Cl)cc2Cl)C(=O)O1 (centres unmarked)", 100],
  ["CC1=CC(=O)C(C(=O)CCc2ccc(O)cc2)C(=O)O1 (centres unmarked)", 77.7],
  ["CC1=CC(=O)C(C(=O)CCc2ccccc2Cl)C(=O)O1 (centres unmarked)", 89.8]
]}
